Entries and their Activity values follow.
# Tested on: Pyricularia oryzae
# method: Antifungal activity against Magnaporthe oryzae infected on compound treated rice seedlings at 500 ppm incubated for 24 hr in moist chamber followed by incubation for 5 days in greenhouse conditions
# Format: functional
Field: numeric (%). Do not append units.

# annotated cases, reported Activity shown
{"columns": ["chemical_structure", "value_units", "Activity"],
 "data": [
  ["CCOC(=O)/C(=N/S(=O)(=O)c1ccc(C)cc1)N(C)C", "%", 50],
  ["Cc1ccc(S(=O)(=O)/N=C(/c2ccc(N(C)C)cc2)N(C)C)cc1", "%", 0],
  ["CCCCCCCCCCCCC/C(=N/S(=O)(=O)c1ccc(C)cc1)N(CC)CC", "%", 30],
  ["CCCCCC/C(=N/S(=O)(=O)c1ccc(C)cc1)N1CCCC1", "%", 30],
  ["CCCCCCCCCCC/C(=N/S(=O)(=O)c1ccc(C)cc1)N(CC)CC", "%", 50],
  ["CCCCCC/C(=N/S(=O)(=O)c1ccccc1)N(CC)CC", "%", 30],
  ["CC(C)OP(=O)(OC(C)C)SCc1ccccc1", "%", 70],
  ["COc1ccc(/C(=N/S(=O)(=O)c2ccc(C)cc2)N(C)C)cc1", "%", 70]
]}

// lookup Activity for CCCCCC/C(=N/S(=O)(=O)c1ccc(C)cc1)N(CCCC)CCCC
0

// lookup Activity for CCCCCC/C(=N/S(=O)(=O)c1ccccc1Cl)N(CC)CC
0

// lookup Activity for CCCCCCCCCC/C(=N/S(=O)(=O)c1ccc(C)cc1)N(CC)CC
50
